# Test system: 454973-116-R2-J3-PDC complex spheroid viability;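 further: spheroids exposed to drugs for seven days before measurement; percent viability relative to DMSO vehicle control wells taken as 100%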
# experiment-summary: Anticancer human tumor 454973-116-R2-J3-PDC patient-derived pancreatic carcinoma cell line growth inhibition [POLQ]
# assay-conditions: second compound 3.16 µM; first compound 0.1 µM; active compounds read low
measure-name: viability, T/C (%)
Number only, in %; omit the unit.

// known answers, use as guide
{"columns": ["compound", "viability, T/C / %"],
 "data": [
  ["O=C(Nc1ccc(O)c(NS(=O)(=O)c2ccc(F)cc2)c1)c1ccc(-c2ccccc2)cc1 + Nc1ccc(C#CCN(C(=O)Cc2ncc(C(F)(F)F)cc2C(F)(F)F)c2ccc(F)cc2)nn1", 106],
  ["O=C(c1cc(Cc2n[nH]c(=O)c3ccccc23)ccc1F)N1CCN(C(=O)C2CC2)CC1 + Nc1ccc(C#CCN(C(=O)Cc2ncc(C(F)(F)F)cc2C(F)(F)F)c2ccc(F)cc2)nn1", 112],
  ["COc1cccc2c1C(=O)c1c(O)c3c(c(O)c1C2=O)CC(O)(C(=O)CO)CC3OC1CC(N)C(O)C(C)O1 (stereo not given) + COC1C(OC(N)=O)C(O)C(Oc2ccc3c(O)c(NC(=O)c4ccc(O)c(CC=C(C)C)c4)c(=O)oc3c2C)OC1(C)C", 30.7],
  ["CC1COCCN1c1cc(C2(S(C)(=N)=O)CC2)nc(-c2ccnc3[nH]ccc23)n1 (stereo not given) + Nc1ccc(C#CCN(C(=O)Cc2ncc(C(F)(F)F)cc2C(F)(F)F)c2ccc(F)cc2)nn1", 106]
]}

Shift focus to the following entry.
Give its viability, T/C value. Item: C=CCn1c(=O)c2cnc(Nc3ccc(N4CCN(C)CC4)cc3)nc2n1-c1cccc(C(C)(C)O)n1 + Cc1cccc(N(C)C(=O)C2C(O)CCN2c2nc(C)cc(C(F)(F)F)c2C#N)c1
102
